Target: JAK2 (Homo sapiens (Human), UniProt O60674)
Sequence (O60674 849-1124): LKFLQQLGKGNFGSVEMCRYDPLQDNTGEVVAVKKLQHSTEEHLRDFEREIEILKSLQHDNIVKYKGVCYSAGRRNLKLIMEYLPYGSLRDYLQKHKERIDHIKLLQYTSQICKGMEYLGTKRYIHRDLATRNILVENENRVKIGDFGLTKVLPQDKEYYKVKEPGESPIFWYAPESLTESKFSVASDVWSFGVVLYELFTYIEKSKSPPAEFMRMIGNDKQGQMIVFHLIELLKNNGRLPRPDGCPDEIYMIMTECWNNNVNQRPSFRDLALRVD
Assay: Jak biochemical HTRF assay, JAK2
Details: recombinant purified GST-tagged catalytic domain; HTRF format; [ATP] 8.5 μM
Source text: Jak Biochemical HTRF Assay Protocol Subsequent reagent additions employed an Agilent Bravo.
Kindly state IC50 for each of the entries shown.
Enter your answer as a number in nM; do not include the unit.

Task item: Give the measured IC50 of N#C[C@@H]1CN(C(=O)OCCCc2ccccc2)CC[C@H]1n1cc(C(N)=O)c(Nc2ccc(F)cc2)n1 (racemic) .
Reply: 1010

Task item: Which IC50 is reported for this molecule? CC1(c2ccc(Nc3nn([C@@H]4COCC[C@H]4C#N)cc3C(N)=O)cc2)COC1 (single isomer, unassigned)
Reply: 21

Task item: Which IC50 is reported for this molecule? N#C[C@@H]1CCN(CC2CCC2)C[C@H]1n1cc(C(N)=O)c(Nc2ccc(F)cc2)n1 (racemic)
Reply: 33

Task item: I have this molecule here, N#C[C@@H]1CN(C(=O)OC2COC2)CC[C@H]1n1cc(C(N)=O)c(Nc2ccc(F)cc2)n1 (racemic) , and I need its recorded IC50.
Reply: 185
